molecular target: T1, ROR1 extracellular segment sequence (including transmembrane) on CHO cells (human, UniProt Q01973 30-472); experiment: FACS, ROR1 transferred onto CHO cell surface (summing up of Example 9)
T1 construct: Cloned into pCDNA3.1 and transfected into CHO cells; also called CHO-ROR1 (extracellular segment); CHO-ROR1
T1 sequence (Q01973 30-472 limits assumed): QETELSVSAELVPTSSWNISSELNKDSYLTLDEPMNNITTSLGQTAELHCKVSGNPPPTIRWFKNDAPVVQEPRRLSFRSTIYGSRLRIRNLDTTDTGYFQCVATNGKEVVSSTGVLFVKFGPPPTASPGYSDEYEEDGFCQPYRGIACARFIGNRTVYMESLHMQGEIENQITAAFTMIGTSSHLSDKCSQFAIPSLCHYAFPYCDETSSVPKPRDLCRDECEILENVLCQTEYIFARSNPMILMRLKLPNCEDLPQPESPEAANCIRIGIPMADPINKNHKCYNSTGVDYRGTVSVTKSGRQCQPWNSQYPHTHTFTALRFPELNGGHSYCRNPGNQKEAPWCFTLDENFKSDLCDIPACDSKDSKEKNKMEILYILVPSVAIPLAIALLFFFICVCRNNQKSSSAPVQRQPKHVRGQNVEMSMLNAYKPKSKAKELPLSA
reported property: EC50

Return EC50 for the following binder: mAb005c (antibody, V domains shown, Human-mouse chimeric) VH: EVQLVESGGGLVKPGGSLKLSCAASGFTFNSYAMSWVRQTPEKRLEWVATISDGGSYTYYPDNEKGRFTISRDNAKNNLYLQMSHLKSEDTAIYYCVRGGYYYNLYAMDYWGQGTSVTVSS VL: DIVLTQSPASLAVSLGQRAIISCKASQSVSFPGTSLMHWYQQKPGQQPKLLIYRASNLEAGVPTRFSGSGSRTDFTLNIHPVEEDDTATYYCQQSREYPWTFGGGTQLEIK
< 2 nM
